assay: Stability of non-dihydrate azithromycin in constituted suspension: conversion to dihydrate (form A) quantified by SS-NMR; type: physicochemical; details: Formulation II constituted with 18 ml water, 5° C., day 1
MEASUREMENT KIND: % A (%)

>>> quantitative_readout("CC[C@H]1OC(=O)[C@H](C)[C@@H](O[C@H]2C[C@@](C)(OC)[C@@H](O)[C@H](C)O2)[C@H](C)[C@@H](O[C@@H]2O[C@H](C)C[C@H](N(C)C)[C@H]2O)[C@](C)(O)C[C@@H](C)CN(C)[C@H](C)[C@@H](O)[C@]1(C)O [Form G, azithromycin sesquihydrate]")
72

P: CCC1OC(=O)C(C)C(O[C@H]2C[C@@](C)(OC)[C@@H](O)C(C)O2)C(C)[C@@H](OC2OC(C)CC(N(C)C)[C@H]2O)[C@@](C)(O)C[C@@H](C)CN(C)[C@H](C)[C@@H](O)[C@]1(C)O (stereo partly shown) [Form F]
Q: CCC1OC(=O)C(C)C(O[C@H]2C[C@@](C)(OC)[C@@H](O)C(C)O2)C(C)[C@@H](OC2OC(C)CC(N(C)C)[C@H]2O)[C@@](C)(O)C[C@@H](C)CN(C)[C@H](C)[C@@H](O)[C@]1(C)O (stereo partly shown) [Form J]
R: CCC1OC(=O)C(C)C(O[C@H]2C[C@@](C)(OC)[C@@H](O)C(C)O2)C(C)[C@@H](OC2OC(C)CC(N(C)C)[C@H]2O)[C@@](C)(O)C[C@@H](C)CN(C)[C@H](C)[C@@H](O)[C@]1(C)O (stereo partly shown) [Form M]
Arrange the 3 compounds from largest to smallest % A. To answer, arrange all of the labels according to the requested order.
R, P, Q
(R: 23%, P: 6%, Q: 0%)

###

assay: Stability of non-dihydrate azithromycin in constituted suspension: conversion to dihydrate (form A) quantified by SS-NMR; format: physicochemical; conditions: Formulation II constituted with 18 ml water, 30° C., day 10
MEASUREMENT KIND: % A (%)

Known % A results, listed for orientation:
>>> quantitative_readout("CCC1OC(=O)C(C)C(O[C@H]2C[C@@](C)(OC)[C@@H](O)C(C)O2)C(C)[C@@H](OC2OC(C)CC(N(C)C)[C@H]2O)[C@@](C)(O)C[C@@H](C)CN(C)[C@H](C)[C@@H](O)[C@]1(C)O (stereo partly shown) [Form J]")
0
>>> quantitative_readout("CC[C@H]1OC(=O)[C@H](C)[C@@H](O[C@H]2C[C@@](C)(OC)[C@@H](O)[C@H](C)O2)[C@H](C)[C@@H](O[C@@H]2O[C@H](C)C[C@H](N(C)C)[C@H]2O)[C@](C)(O)C[C@@H](C)CN(C)[C@H](C)[C@@H](O)[C@]1(C)O [Form G, azithromycin sesquihydrate]")
76

I: CCC1OC(=O)C(C)C(O[C@H]2C[C@@](C)(OC)[C@@H](O)C(C)O2)C(C)[C@@H](OC2OC(C)CC(N(C)C)[C@H]2O)[C@@](C)(O)C[C@@H](C)CN(C)[C@H](C)[C@@H](O)[C@]1(C)O (stereo partly shown) [Form F]
II: CCC1OC(=O)C(C)C(O[C@H]2C[C@@](C)(OC)[C@@H](O)C(C)O2)C(C)[C@@H](OC2OC(C)CC(N(C)C)[C@H]2O)[C@@](C)(O)C[C@@H](C)CN(C)[C@H](C)[C@@H](O)[C@]1(C)O (stereo partly shown) [Form M]
When the recorded % A values are compared, which is smaller: that of I or that of II ? Kindly state the label of the option you pick.
I
